Test: AlphaScreen signal interference by SUMOylation inhibitors, SAR follow-up, artefact control for SUMOylation inhibitor project, biochemical (AID 488777)
Settings: purified counter-screen enzymes, TR-FRET, 60 min
Active and inactive are the calls of the source. No rule for the calls is given here.
Labels: active, inactive

INSERT INTO results (compound, category_label) VALUES
  ('CCCCn1c(NC(=O)C2CCCCC2)c(C#N)c2nc3ccccc3nc21', 'inactive'),
  ('CCC[C@@H](Nc1ccccc1)C12C=CC(O1)C(C(=O)OC)=C2C(=O)OC (stereo not given in full)', 'inactive'),
  ('C=C[C@H](Nc1ccccc1)C12C=CC(O1)C(C(=O)OC)=C2C(=O)OC (stereo not given in full)', 'inactive'),
  ('CCCCn1c(NC(=O)c2ccco2)c(C#N)c2nc3ccccc3nc21', 'inactive'),
  ('CCCC1=NN(c2ccc(C(=O)O)cc2)C(=O)/C1=C/c1ccc(O)cc1', 'inactive'),
  ('CCCCn1c(NC(=O)c2ccc(F)cc2)c(C#N)c2nc3ccccc3nc21', 'active'),
  ('N#Cc1c(NC(=O)c2ccccc2Cl)n(Cc2ccccc2)c2nc3ccccc3nc12', 'inactive'),
  ('CCCC1=NN(c2ccccc2)C(=O)/C1=C/c1ccc(OCc2ccc(C(=O)OC)cc2)cc1', 'inactive'),
  ('C=C[C@@H](Nc1ccccc1)C12C=CC(O1)C(C(=O)OC)=C2C(=O)OC (stereo not given in full)', 'inactive'),
  ('CCCCn1c(NC(=O)c2ccccc2Cl)c(S(=O)(=O)c2ccccc2)c2nc3ccccc3nc21', 'inactive');

###

Assay: AlphaScreen signal interference by SUMOylation inhibitors, SAR follow-up, artefact control for SUMOylation inhibitor project, biochemical (AID 488777)
Settings: purified counter-screen enzymes, TR-FRET, 60 min
Calls of active or inactive are those of the source. The rule behind the calls is not given here.
Labels: 1 (active), -1 (inactive)

INSERT INTO results (molecule, category_label) VALUES
  ('c1ccc(CC(Nc2ccccc2)c2ccco2)cc1 (stereo not given)', -1),
  ('CCCC1=NN(c2ccc(C(=O)O)cc2)C(=O)/C1=C/c1ccc(OCc2ccccc2)cc1', 1),
  ('CCCCn1c(N)c(C#N)c2nc3ccccc3nc21', -1),
  ('CCCCn1c(N)c(S(=O)(=O)c2ccc(C)cc2)c2nc3ccccc3nc21', -1),
  ('C=CCn1c(NC(=O)c2ccccc2Cl)c(C#N)c2nc3ccccc3nc21', -1),
  ('COC(=O)[C@@H]1C2CCC([C@@H](Cc3ccccc3)Nc3ccccc3)(O2)[C@@H]1C(=O)OC (stereo not given in full)', -1),
  ('COC(=O)C1=C(C(=O)OC)C2(C(Cc3ccc(OC(F)(F)F)cc3)Nc3ccccc3)C=CC1O2 (stereo not given)', -1),
  ('COC(=O)C1=C(C(=O)OC)C2([C@H](Cc3ccc(C)cc3)Nc3ccccc3)C=CC1O2 (stereo not given in full)', -1),
  ('CCCCn1c(NC(=O)c2ccc(OC)cc2)c(S(=O)(=O)c2ccc(C)cc2)c2nc3ccccc3nc21', -1),
  ('COC(=O)C1=C(C(=O)O)C2C=CC1([C@@H](Cc1ccccc1)Nc1ccccc1)O2 (stereo not given in full)', -1);
